# Test system: E. coli BW25113 ompFp lux reporter
# PROTOCOL DESCRIPTION: promoter activity interaction Z-score (Lux/OD deviation from empty-vector control); higher = stronger promoter induction by the compound
# MEASUREMENT CONDITIONS: 1 µg/ml; genetic background: ΔsoxS
Listed compounds paired with reported promoter activity interaction Z-score

{"columns": ["COMPOUND", "promoter activity interaction Z-score"],
 "data": [
  ["C/C(=C\\C(=O)OCCCCCCCCC(=O)O)C[C@@H]1OC[C@H](C[C@@H]2O[C@H]2[C@@H](C)[C@H](C)O)[C@@H](O)[C@H]1O [Pseudomonic acid]", 0.938],
  ["CO[C@H]1/C=C/O[C@@]2(C)Oc3c(C)c(O)c4c(O)c(c(/C=N/N5CCN(C)CC5)c(O)c4c3C2=O)NC(=O)/C(C)=C\\C=C\\[C@H](C)[C@H](O)[C@@H](C)[C@@H](O)[C@@H](C)[C@H](OC(C)=O)[C@@H]1C [Rifampicin]", -1.07],
  ["O=C(N[C@H](CO)[C@H](O)c1ccc([N+](=O)[O-])cc1)C(Cl)Cl [Chloramphenicol]", -0.525],
  ["CC1(C)S[C@@H]2[C@H](NC(=O)[C@H](N)c3ccc(O)cc3)C(=O)N2[C@H]1C(=O)O [Amoxicillin]", -0.869]
]}
